- target_under_test: α4β1 integrin (Homo sapiens (Human), UniProt P05556+P13612)
- Sequence (P05556 21-798, one chain of several): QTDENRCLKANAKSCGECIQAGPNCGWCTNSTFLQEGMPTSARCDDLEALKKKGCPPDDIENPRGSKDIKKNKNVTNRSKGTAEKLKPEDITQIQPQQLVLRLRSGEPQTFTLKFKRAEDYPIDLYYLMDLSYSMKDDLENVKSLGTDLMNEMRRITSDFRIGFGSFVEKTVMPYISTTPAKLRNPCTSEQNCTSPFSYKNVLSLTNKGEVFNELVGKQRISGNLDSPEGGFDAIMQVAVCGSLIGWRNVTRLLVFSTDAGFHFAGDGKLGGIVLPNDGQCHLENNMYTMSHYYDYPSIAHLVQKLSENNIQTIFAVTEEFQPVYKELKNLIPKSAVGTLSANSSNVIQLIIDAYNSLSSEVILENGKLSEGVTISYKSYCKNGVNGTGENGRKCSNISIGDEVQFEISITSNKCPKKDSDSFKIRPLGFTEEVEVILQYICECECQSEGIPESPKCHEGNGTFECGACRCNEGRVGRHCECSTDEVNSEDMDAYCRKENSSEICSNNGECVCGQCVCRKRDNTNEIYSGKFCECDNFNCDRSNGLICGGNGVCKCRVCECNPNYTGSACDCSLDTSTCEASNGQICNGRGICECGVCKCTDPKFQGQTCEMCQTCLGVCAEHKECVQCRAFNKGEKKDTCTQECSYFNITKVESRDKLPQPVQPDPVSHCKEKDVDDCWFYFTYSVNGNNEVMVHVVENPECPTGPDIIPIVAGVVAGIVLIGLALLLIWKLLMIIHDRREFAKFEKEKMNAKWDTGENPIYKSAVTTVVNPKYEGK
- test_summary: Integrin Adhesion Assay: Protocol 5 (VCAM-coated plate, RPMI-8866 cells with stable LOF mutation of the ITGB7 gene)
- Assay type: cell-based
- condition_info: Protocol 5; RPMI-8866 cells with LOF mutation of ITGB7, VCAM; read-out: Mean IC50 α4β1 KO
Exercise: for every item that follows, state its recorded IC50.

[
  {
    "compound": "CN(C)Cc1ccc2c(c1)c(C(F)(F)F)c(-c1cccc3c(C[C@H](NC(=O)c4c(F)cc(C(F)(F)F)cc4F)C(=O)O)cccc13)c(=O)n2C [Compound 699]",
    "target_under_test": "α4β1 integrin (Homo sapiens (Human), UniProt P05556+P13612)",
    "IC50": "100 to 1000 nM"
  }
]

Could I get IC50 for every one of these entries?
1. COc1cccc(CN2CC3CCC(C2)O3)c1-c1cccc2c(C[C@H](NC(=O)c3c(C)cccc3F)C(=O)O)cccc12 [Compound 1028]
2. O=C(N[C@@H](Cc1cccc2c(-n3cccc(C(F)(F)F)c3=O)cccc12)C(=O)O)c1c(F)cccc1F [Compound 1054]

OUTPUT:
["> 1000 nM", "> 1000 nM"]

---

Exercise: for every item that follows, state its recorded pIC50.
- target_under_test: α4β7 integrin (Homo sapiens (Human), UniProt P13612+P26010)
- Sequence (P13612 34-1032): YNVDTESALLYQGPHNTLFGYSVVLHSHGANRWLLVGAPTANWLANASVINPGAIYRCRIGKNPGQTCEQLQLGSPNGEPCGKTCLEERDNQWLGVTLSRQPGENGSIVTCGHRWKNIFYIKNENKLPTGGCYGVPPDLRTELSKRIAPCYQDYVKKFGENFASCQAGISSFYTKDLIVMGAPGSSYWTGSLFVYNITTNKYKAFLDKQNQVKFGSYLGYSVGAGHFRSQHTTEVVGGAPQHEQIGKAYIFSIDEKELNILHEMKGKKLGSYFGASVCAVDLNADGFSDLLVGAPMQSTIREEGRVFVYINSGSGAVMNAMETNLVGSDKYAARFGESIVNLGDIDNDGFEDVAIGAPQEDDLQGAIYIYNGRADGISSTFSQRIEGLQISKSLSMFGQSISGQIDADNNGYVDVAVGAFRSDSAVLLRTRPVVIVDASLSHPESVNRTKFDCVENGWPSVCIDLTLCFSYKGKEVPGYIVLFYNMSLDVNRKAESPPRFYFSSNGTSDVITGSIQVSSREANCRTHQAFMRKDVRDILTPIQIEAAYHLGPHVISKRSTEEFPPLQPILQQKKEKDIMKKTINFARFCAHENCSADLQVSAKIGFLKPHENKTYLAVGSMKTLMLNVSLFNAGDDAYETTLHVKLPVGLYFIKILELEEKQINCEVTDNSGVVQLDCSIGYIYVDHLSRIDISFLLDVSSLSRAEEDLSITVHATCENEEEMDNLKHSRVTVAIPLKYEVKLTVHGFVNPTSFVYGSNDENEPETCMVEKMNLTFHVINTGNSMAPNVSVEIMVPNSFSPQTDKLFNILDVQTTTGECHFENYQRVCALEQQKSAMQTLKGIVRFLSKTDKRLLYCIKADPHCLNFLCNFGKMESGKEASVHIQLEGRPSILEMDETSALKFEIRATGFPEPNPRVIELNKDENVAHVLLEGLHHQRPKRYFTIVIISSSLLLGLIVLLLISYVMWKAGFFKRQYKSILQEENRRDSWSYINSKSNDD
- Sequence (P26010 20-798): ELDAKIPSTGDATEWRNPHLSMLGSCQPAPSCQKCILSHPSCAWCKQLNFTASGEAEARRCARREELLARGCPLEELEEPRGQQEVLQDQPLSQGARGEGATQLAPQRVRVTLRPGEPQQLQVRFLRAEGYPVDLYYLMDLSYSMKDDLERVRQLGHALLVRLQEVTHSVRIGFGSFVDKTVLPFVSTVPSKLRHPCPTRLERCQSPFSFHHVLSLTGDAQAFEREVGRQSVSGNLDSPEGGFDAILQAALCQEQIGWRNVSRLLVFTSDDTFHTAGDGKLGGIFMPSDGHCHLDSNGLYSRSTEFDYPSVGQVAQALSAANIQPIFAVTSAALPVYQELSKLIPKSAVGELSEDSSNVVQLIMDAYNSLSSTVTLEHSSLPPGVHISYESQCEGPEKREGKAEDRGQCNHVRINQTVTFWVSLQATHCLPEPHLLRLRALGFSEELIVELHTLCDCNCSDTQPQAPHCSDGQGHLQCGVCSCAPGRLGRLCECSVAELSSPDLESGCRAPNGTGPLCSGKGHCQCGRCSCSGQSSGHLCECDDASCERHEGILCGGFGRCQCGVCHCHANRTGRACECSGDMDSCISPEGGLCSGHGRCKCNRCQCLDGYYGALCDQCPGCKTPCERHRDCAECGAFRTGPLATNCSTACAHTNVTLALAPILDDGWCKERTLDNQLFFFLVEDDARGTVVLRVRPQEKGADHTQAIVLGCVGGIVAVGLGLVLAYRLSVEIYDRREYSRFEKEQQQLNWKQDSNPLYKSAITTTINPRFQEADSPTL
- test_summary: Integrin Adhesion Assay: Protocol 1 (MAdCAM-coated plate, RPMI-8866 cells, CellTiter GLO readout)
- Format: cell-based
- condition_info: integrin adhesion assay; determined by at least one of the assays described (protocol not specified)
pIC50: −log10 of the molar value.

Sample records with pIC50:
[
  {
    "compound": "Cn1ccc(=O)n(-c2cccc3c(C[C@H](NC(=O)c4c(F)cc(NS(C)(=O)=O)cc4F)C(=O)O)cccc23)c1=O [Compound 111]",
    "pIC50": "> 8.00"
  },
  {
    "compound": "Cn1ccc(=O)n(-c2cccc3c(C[C@H](NC(=O)C4(C#N)CCN(CC(F)(F)F)CC4)C(=O)O)cccc23)c1=O [Compound 163]",
    "pIC50": "7.00 to 8.00"
  },
  {
    "compound": "C[C@H]1COCCN1c1cc(F)c(C(=O)N[C@@H](Cc2cccc3c(-c4c(C(F)(F)F)ccn(C)c4=O)nccc23)C(=O)O)c(F)c1 [Compound 216]",
    "pIC50": "7.00 to 8.00"
  },
  {
    "compound": "Cn1ccc(=O)n(-c2cccc3c(C[C@H](NC(=O)c4c(F)cc5cn(CC(F)(F)F)nc5c4F)C(=O)O)cccc23)c1=O [Compound 144]",
    "pIC50": "7.00 to 8.00"
  },
  {
    "compound": "Cn1ccc(=O)n(-c2cccc3c(C[C@H](NC(=O)C4(C(F)(F)F)CCCCC4)C(=O)O)cccc23)c1=O [Compound 13]",
    "pIC50": "7.00 to 8.00"
  }
]

INPUT: # pIC50 lookup, item CNC(=O)[C@@H]1CC[C@H](c2ccccc2)N1C(=O)c1ccc2cc(C(=O)N[C@@H](Cc3cccc4c(-n5c(=O)ccn(C)c5=O)cccc34)C(=O)O)ccc2c1 [Compound 128]
OUTPUT: 6.00 to 7.00

---

I'd be grateful if you could share measured IC50 for these entries.
- target_under_test: α4β1 integrin (Homo sapiens (Human), UniProt P05556+P13612)
- test_summary: Integrin Adhesion Assay: Protocol 5 (VCAM-coated plate, RPMI-8866 cells with stable LOF mutation of the ITGB7 gene)
- Format: cell-based
- condition_info: Protocol 5; RPMI-8866 cells with LOF mutation of ITGB7, VCAM; read-out: Mean IC50 α4β1 KO

Reference set, count: 5
[
  {
    "compound": "COc1ccc(CCN2CCC(F)(F)CC2)c(C(F)(F)F)c1-c1cccc2c(C[C@H](NC(=O)C3(C(F)(F)F)CCN(CC(F)(F)F)CC3)C(=O)O)cccc12 [Compound 850]",
    "IC50": "100 to 1000 nM"
  },
  {
    "compound": "COc1cccc(CCN2CCC[C@@H](F)C2)c1-c1cccc2c(C[C@H](NC(=O)C3(C(F)(F)F)CCN(CC(F)F)CC3)C(=O)O)cccc12 [Compound 970]",
    "IC50": "100 to 1000 nM"
  },
  {
    "compound": "COc1ccc(CN2CCC(c3ccccc3)CC2)c(OC)c1-c1cccc2c(C[C@H](NC(=O)C3(C(F)(F)F)CCN(CC(F)(F)F)CC3)C(=O)O)cccc12 [Compound 807]",
    "IC50": "> 1000 nM"
  },
  {
    "compound": "COc1cc(CN2CCCCC2)c2cccnc2c1-c1cccc2c(C[C@H](NC(=O)C3(C(F)(F)F)CCN(CC(F)(F)F)CC3)C(=O)O)cccc12 [Compound 728]",
    "IC50": "100 to 1000 nM"
  },
  {
    "compound": "CCOCc1cc(OC)c(-c2cccc3c(C[C@H](NC(=O)c4c(C)cccc4F)C(=O)O)cccc23)cc1CN1CCCCC1 [Compound 1008]",
    "IC50": "100 to 1000 nM"
  }
]

For each listed entry, give its IC50.
1. COc1c(CN2CCCCC2)cc2cccnc2c1-c1cccc2c(C[C@H](NC(=O)C3(C(F)(F)F)CCN(CC(F)(F)F)CC3)C(=O)O)cccc12 [Compound 792]
2. Cn1c(=O)c(-c2cccc3c(C[C@H](NC(=O)c4c(F)cccc4F)C(=O)O)cccc23)c(C(F)(F)F)c2cc(CN)ccc21 [Compound 1051]
3. COc1cccc(CCN2CCC(C)(C)CC2)c1-c1cccc2c(C[C@H](NC(=O)c3c(C)cccc3F)C(=O)O)cccc12 [Compound 1033]
4. CC1(C)CCCN(Cc2cnc(-c3cccc4c(C[C@H](NC(=O)C5(C(F)(F)F)CCN(CC(F)F)CC5)C(=O)O)cccc34)c3ccccc23)C1 [Compound 910]
5. COc1ccc(CN2CCC(C)(C)CC2)c(C(F)(F)F)c1-c1cccc2c(C[C@H](NC(=O)C3(C(F)(F)F)CCN(CC(F)(F)F)CC3)C(=O)O)cccc12 [Compound 819]
6. Cc1cc(CN2CCCCC2)cnc1-c1cccc2c(C[C@H](NC(=O)C3(C(F)(F)F)CCN(CC(F)(F)F)CC3)C(=O)O)cccc12 [Compound 880]
7. O=C(O)[C@H](Cc1cccc2c(-c3cccc4c(CN5CCCCC5)cncc34)cccc12)NC(=O)C1(C(F)(F)F)CCN(CC(F)(F)F)CC1 [Compound 803]

OUTPUT:
1. > 1000 nM
2. 100 to 1000 nM
3. 100 to 1000 nM
4. > 1000 nM
5. 100 to 1000 nM
6. > 1000 nM
7. > 1000 nM

---

- target_under_test: α4β1 integrin (Homo sapiens (Human), UniProt P05556+P13612)
- test_summary: Integrin Adhesion Assay: Protocol 2 (VCAM-coated plate, Jurkat cells, CellTiter GLO readout)
- Format: cell-based
- condition_info: determined by at least one of the assays described (protocol not specified)
pIC50: −log10 of the molar value.
Please provide measured pIC50 for the entries that follow.

Known pIC50 results, listed for orientation:
[
  {
    "structure_string": "CC(C)N1CCC(C)(C(=O)N[C@@H](Cc2cccc3c(-n4c(=O)ccn(C)c4=O)cccc23)C(=O)O)CC1",
    "pIC50": "< 6.00"
  },
  {
    "structure_string": "Cn1ccc(C(F)(F)F)c(-c2cccc3c(C[C@H](NC(=O)c4c(F)cc(N5CCOC[C@@H]5C(F)(F)F)cc4CN4CCOCC4)C(=O)O)cccc23)c1=O",
    "pIC50": "6.00 to 7.00"
  }
]

Proceed to the following item.
INPUT: For "Cn1ccc(C(F)(F)F)c(-c2nccc3c(C[C@H](NC(=O)c4c(Cl)cc(N5CCOC[C@@H]5C(F)(F)F)cc4CN4CCC(F)(F)CC4)C(=O)O)cccc23)c1=O" , what is its reported pIC50?
OUTPUT: < 6.00

---

- target_under_test: α4β7 integrin (Homo sapiens (Human), UniProt P13612+P26010)
- test_summary: Integrin Adhesion Assay: Protocol 1 (MAdCAM-coated plate, RPMI-8866 cells, CellTiter GLO readout)
- Format: cell-based
pIC50: −log10 of the molar value.
quantity_measured: pIC50

Sample answers from the record:
[
  {
    "molecule": "Cn1c(=O)c(-c2cccc3c(C[C@H](NC(=O)[C@]4(C)CC[C@H](N5CC(F)(F)C5)CC4)C(=O)O)cccc23)c(C(F)(F)F)c2ccccc21 [Compound 400]",
    "measurement": "6.00 to 7.00"
  },
  {
    "molecule": "Cn1c(=O)c(-c2cccc3c(C[C@H](NC(=O)c4c(F)ccc(C5CCCCC5)c4F)C(=O)O)cccc23)c(C(F)(F)F)c2ccccc21 [Compound 377]",
    "measurement": "< 6.00"
  }
]

Now for another entry.
INPUT: Any idea what pIC50 was measured for Cn1c(=O)c(-c2cccc3c(C[C@H](NC(=O)c4c(F)cc(N5CCOC6(CCC6)C5)cc4F)C(=O)O)cccc23)c(C(F)(F)F)c2ccccc21 [Compound 340] ?
OUTPUT: 6.00 to 7.00

Source listed as patent US20250313535A1.
